Assay: physchem
Conditions: EtOH, organic solvent or mixture
parameterMeasured: solubility (mg/mL)
Express it in mg/mL; write the number only.

What measured solubility goes with O=C(C1CC1)N1CCN(Cn2sc3ccccc3c2=O)CC1 ?
20

* * *

Molecular target: recombinant catalytic a domain of human PDI A1 (PDIa) (Homo sapiens)
Construct: made in house; host or cells: Escherichia coli BL21-Gold (DE3)
Sequence (P07237 with tags, fused parts or gaps): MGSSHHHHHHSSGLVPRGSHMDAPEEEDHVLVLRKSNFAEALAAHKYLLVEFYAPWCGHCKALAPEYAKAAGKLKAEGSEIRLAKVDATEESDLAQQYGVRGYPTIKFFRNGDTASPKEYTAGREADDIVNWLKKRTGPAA
Assay: Insulin aggregation assay (PDIa reductase activity)
Assay type: biochemical
Settings: Table 5
Description: In this insulin aggregation assay (Xu et al., 2012; Jasuja et al., 2012; Khan et al., 2011; Smith et al., 2004), PDIa reduced the two disulfide bonds between the α- and β-chains of insulin, causing the β-chain to aggregate and precipitate, resulting in an increase in absorbance at 650 nm. […]
parameterMeasured: Insulin Assay (either active or inactive)

For orientation, consider the following solved cases.
compound	assayTarget	assayResult
O=c1c2ccccc2sn1CN1CCC(CO)CC1 [LC-4]	recombinant catalytic a domain of human PDI A1 (PDIa) (Homo sapiens)	Active
Cc1ccc(-n2sc3ccccc3c2=O)c(Br)c1 [LC-36]	recombinant catalytic a domain of human PDI A1 (PDIa) (Homo sapiens)	not active
Cc1nnc2s[nH]c(=O)c2c1C [LC-57]	recombinant catalytic a domain of human PDI A1 (PDIa) (Homo sapiens)	Active
O=c1c2ccccc2sn1-c1ccc(N2CCOCC2)cc1 [LC-27]	recombinant catalytic a domain of human PDI A1 (PDIa) (Homo sapiens)	not active
O=c1[nH]sc2c(Cl)cccc12 [LC-38]	recombinant catalytic a domain of human PDI A1 (PDIa) (Homo sapiens)	not active

Let us examine a further case.
I would be grateful if you could share the reported Insulin Assay (either active or inactive) for Cc1ccc(NC(=O)c2ccccc2S)c(Br)c1 [LC-34] .
not active

Data provenance is patent US20180092908A1.
